Measured values drawn from the supplement of paper PMC10567573 for this set.

B1: BTBD1 (parent)
chain: IVGFGLYGSIHGPTDYQVNIQIIE

Variants of: B1
Assay: protein stability index of a GFP-peptide fusion (GPS, HEK-293T) (PSI 1-6); higher = more stable;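 further: lentivirally expressed fusions sorted by FACS into six bins by GFP to DsRed ratio, PSI derived from sequencing read proportions per bin multiplied by bin number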
Details: c terminus: a fixed tail appended
// protein stability index lookup, one value per entry
READOUT LABEL: protein stability index

{"columns": ["MUTATION ID", "READING"],
 "data": [
  ["I10W", 1.64],
  ["G5M", 2.92],
  ["S9L", 3.19],
  ["L6E", 2.02],
  ["I23W", 1.57],
  ["T14I", 2.73],
  ["V2I", 2.6],
  ["V2Y", 2.16],
  ["I20T", 2.13],
  ["Q21L", 2.66],
  ["H11D", 1.97],
  ["G5D", 2.4],
  ["I1S", 1.77],
  ["I22V", 3.25],
  ["N19T", 3.11],
  ["Q21I", 2.01],
  ["L6Y", 3.48],
  ["Q17R", 3.14],
  ["T14R", 4.46],
  ["E24F", 1.72],
  ["Q17D", 2.09],
  ["G5N", 3.75],
  ["P13R", 2.35],
  ["Y16W", 3.98],
  ["N19H", 1.59],
  ["I20S", 1.93],
  ["V18L", 3.15],
  ["S9E", 2.74],
  ["V18N", 1.8],
  ["G8T", 2.37],
  ["H11C", 2.58],
  ["Q21T", 2.1],
  ["Q21E", 2.68],
  ["H11N", 3.26],
  ["Q21F", 1.77],
  ["N19I", 3.1],
  ["N19V", 4.07],
  ["F4D", 2.64],
  ["V18I", 2.72],
  ["G8Q", 3.42],
  ["F4C", 2.29],
  ["I1P", 1.82],
  ["N19R", 2.13],
  ["I1H", 2.38],
  ["L6G", 4.42],
  ["G5P", 2.36],
  ["D15M", 2.99],
  ["I22H", 2.4],
  ["Q21W", 1.5],
  ["Y7H", 3.81],
  ["T14V", 2.82],
  ["H11K", 1.55],
  ["I23K", 2.13],
  ["P13T", 2.81],
  ["Y7S", 2.47],
  ["T14S", 3.24],
  ["Y7F", 1.86],
  ["Q17T", 2.53],
  ["I10V", 2.09],
  ["V18D", 2.32],
  ["D15G", 2.52],
  ["I22Q", 3],
  ["G8N", 2.5],
  ["I10C", 3.14],
  ["L6N", 2.56],
  ["P13Y", 2.98],
  ["Y7E", 3.6],
  ["D15P", 2.37],
  ["G8F", 2.78],
  ["P13M", 2.48],
  ["P13V", 2.33],
  ["F4A", 1.97],
  ["F4Q", 1.9],
  ["Y16D", 2.5],
  ["I10F", 3.05],
  ["V2A", 2.81]
]}
